Experiment: Solubility of aminoflavone in DI water and 1% PVA (HPLC)
Format: physicochemical
Details: DI water, water, thermodynamic from solid, DI water, after shaking, before centrifugation; read-out: Solubility
readout.kind: solubility at 5 min (µg/mL)

- Cc1c(F)c(N)c2c(=O)cc(-c3ccc(N)c(F)c3)oc2c1F: 7.84

====

Experiment: Solubility of aminoflavone in DI water and 1% PVA (HPLC)
Format: physicochemical
Conditions: DI water, water, thermodynamic from solid, DI water after centrifugation, average; read-out: average solubility
readout.kind: solubility at 5 min (µg/mL)

• Cc1c(F)c(N)c2c(=O)cc(-c3ccc(N)c(F)c3)oc2c1F [Sample 5, Aminoflavone] = 0.33
